// provenance: patent US4371540A

test_summary: in vivo
measurement_setup: dog
readout_name: clearance

Requested read-out: clearance. Entry: O=C(Cn1ccnc1[N+](=O)[O-])NCCO 3.5 mL/min/kg

* * *

Reported values of LD50 for individual entries
test_summary: in vivo
measurement_setup: mouse

// solved cases for LD50 follow
O=[N+]([O-])c1nccn1CC(O)CCl (stereo not drawn) | ~180 mg/kg
CCOCC(O)Cn1ccnc1[N+](=O)[O-] (stereo not drawn) | > 1100 mg/kg

Requested read-out: LD50. Entry: O=C(Cn1ccnc1[N+](=O)[O-])NCC(O)CO (stereo not drawn) > 6100 mg/kg

Requested read-out: LD50. Entry: O=[N+]([O-])c1nccn1CC(O)CO (stereo not drawn) 3100 mg/kg

Requested read-out: LD50. Entry: C[S+]([O-])CCn1ccnc1[N+](=O)[O-] (stereo not drawn) ~2000 mg/kg

Requested read-out: LD50. Entry: O=[N+]([O-])c1nccn1CC(O)CF (stereo not drawn) ~900 mg/kg

Requested read-out: LD50. Entry: O=[N+]([O-])c1nccn1CCN1CCOCC1 ~900 mg/kg

Requested read-out: LD50. Entry: O=C(Cn1ccnc1[N+](=O)[O-])NCCO 4900 mg/kg

Requested read-out: LD50. Entry: O=C(Cn1ccnc1[N+](=O)[O-])N(CCO)CCO > 7700 mg/kg
